compounds and their reported inhibition at 2 µM
Biological target: SMO (Mus musculus)
Construct: endogenous in cells; host or cells: C3H10T1/2 (ATCC #CCL-226)
Sequence (P56726 33-793): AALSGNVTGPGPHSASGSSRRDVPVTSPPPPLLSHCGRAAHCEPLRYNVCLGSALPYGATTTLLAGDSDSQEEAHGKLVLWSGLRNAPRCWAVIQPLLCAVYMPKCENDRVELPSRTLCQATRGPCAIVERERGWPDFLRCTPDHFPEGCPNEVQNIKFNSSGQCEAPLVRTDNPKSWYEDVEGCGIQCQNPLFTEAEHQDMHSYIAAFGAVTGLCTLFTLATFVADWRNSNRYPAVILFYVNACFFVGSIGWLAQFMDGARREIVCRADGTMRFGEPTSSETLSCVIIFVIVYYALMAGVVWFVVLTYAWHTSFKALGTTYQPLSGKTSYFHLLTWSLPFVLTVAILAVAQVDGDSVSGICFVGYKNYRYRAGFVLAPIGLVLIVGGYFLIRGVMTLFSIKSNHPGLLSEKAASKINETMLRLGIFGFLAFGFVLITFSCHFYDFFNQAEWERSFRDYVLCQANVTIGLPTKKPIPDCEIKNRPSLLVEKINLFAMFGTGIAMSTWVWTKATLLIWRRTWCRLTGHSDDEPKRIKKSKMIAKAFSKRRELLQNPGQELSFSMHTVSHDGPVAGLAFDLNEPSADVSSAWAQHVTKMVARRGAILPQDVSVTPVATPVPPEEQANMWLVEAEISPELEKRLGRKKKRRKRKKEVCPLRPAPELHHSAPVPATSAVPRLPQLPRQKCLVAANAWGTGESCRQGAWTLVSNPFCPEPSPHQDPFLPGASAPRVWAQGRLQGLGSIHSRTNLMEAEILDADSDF
Experiment: Smoothened (SMO)/Sonic Hedgehog (SHh) Transient Transcriptional Activation Assay (Gli-luciferase reporter in C3H10T1/2 cells)
Assay type: cell-based, murine
Conditions: C3H 10T1/2, 2 μM test compound, SHh 250 ng/ml, 20 hrs, read-out: SMO CELL % INHIBITION @ 2 μM
Where a name gives a salt, the structure may show the parent alone.
# answer = value followed by unit

Tell me reported inhibition at 2 µM for O=C(N[C@@H]1CCC[C@H](c2nc3ccccc3[nH]2)C1)c1ccc2c(c1)CN(CC1CC1)CC2 [Example 267, HCl] , tested with SMO (Mus musculus).
103%

Request: inhibition at 2 µM, test system SMO (Mus musculus), entry O=C(N[C@@H]1CCC[C@H](c2nc3ccccc3[nH]2)C1)c1ccc2c(c1)OCCO2 [Example 63, HCl]
108%

Reported inhibition at 2 µM for SMO (Mus musculus), given C[S+]([O-])c1ccc(C(=O)NC2CCCC(c3nc4ccccc4[nH]3)C2)cc1 (stereo not shown) ?
83%

Hi! What's the reported inhibition at 2 µM for O=C(NC1CCCC(c2nc3ccccc3[nH]2)C1)c1ccc2snnc2c1 (stereo not shown) on SMO (Mus musculus)?
54%
